Test system: PRKCQ
Details: concentration: 1 μM,replicates: in singlicate; n = 1;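 further: KINOMEscan kinase panel screen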
Each entry below lists one item and its recorded %Inh value.
readout-kind: %Inh (%)

# compound, number
records = [
    ("O=C1NCCc2[nH]c(-c3ccncc3)cc21", 46),
    ("O=C(NCC1CC1)c1ccc(-c2cc(C(=O)NC3CC3)ccc2F)cc1", 0),
    ("CC(C)c1nc(-c2cccc(NS(=O)(=O)c3ccccc3)c2)c(-c2ccnc(Nc3ccc4c(c3)CN(C)CC4)n2)s1", 11),
    ("COc1ccc(Nc2nccc(N3CCC(NC(=O)c4cccc(C#N)c4)C3)n2)cc1 (centres unmarked)", 0),
    ("O=C(Nc1ccc(Oc2ccc3nc(NC(=O)C4CC4)cn3n2)c(F)c1)c1cccn(-c2ccccc2)c1=O", 0),
    ("Cn1ccc2ncnc(Oc3ccc(NC(=O)Nc4cccc(C(F)(F)F)c4)c(F)c3)c21", 0),
    ("COC(=O)c1cccc(NC(=O)NC2CCN(c3ccnc(Nc4cc(OC)c(OC)c(OC)c4)n3)C2)c1 (centres unmarked)", 0),
    ("COc1cc2nccc(Nc3ccc(Oc4ccccc4)cc3)c2cc1OC.Cl", 0),
]

----------
Test system: AXL
Details: concentration: 1 μM,replicates: in singlicate; n = 1

# compound, measured-on, unit-symbol, %Inh
measured = [
    ("C[C@@H](Oc1cc(-n2cnc3cc(-c4ccncc4)ccc32)sc1C(N)=O)c1ccccc1Cl", "AXL", "%", 89),
    ("C[C@@H]1CNc2c(sc3ccc4nc(-c5ccncc5)ccc4c23)C(=O)N1", "AXL", "%", 81),
    ("O=C(Nc1cccc(Oc2ccc3nccn3n2)c1)Nc1cccc(C(F)(F)F)c1", "AXL", "%", 35),
    ("O=C(NOCC1CC1)c1cc(Br)c(F)c(F)c1Nc1ccc(I)cc1Cl", "AXL", "%", 2),
    ("CC(C)S(=O)(=O)N1CCN(Cc2ccc3c(c2)nc(NC(=O)c2ccsc2)n3C[C@H](O)c2ccccc2)CC1", "AXL", "%", 97.7),
    ("COc1cc2c(Nc3ccc(NC(=O)c4ccccc4)cc3)ncnc2cc1OCCCN1CCOCC1", "AXL", "%", 55),
    ("N#Cc1cccc(C(=O)NC2CCN(c3ccnc(Nc4ccc(F)cc4)n3)C2)c1 (centres unmarked)", "AXL", "%", 20),
    ("CNC(=O)c1ccccc1Nc1nc(Nc2cccc(CS(C)(=O)=O)c2)ncc1C.O=CO", "AXL", "%", 100),
]

----------
Each entry below lists one item and its recorded %Inh value.
System: EPHA4
Conditions: concentration: 1 μM,replicates: in singlicate; n = 1

# compound, measured-on, %Inh [%]
measured = [
    ("CN1CCN(CCNc2nc3cc(Oc4ccc(NC(=O)Nc5cc(C(F)(F)F)ccc5F)cc4)ccc3[nH]2)CC1.Cl.Cl [GW768504]", "EPHA4", 28),
    ("COc1cccc(CNC(=O)NC2CCN(c3ccnc(Nc4cc(OC)c(OC)c(OC)c4)n3)C2)c1 (stereo not shown) [GSK1379765]", "EPHA4", 3),
    ("FC(F)(F)c1cc(Br)cc(Nc2nccc(-c3cnn4ncccc34)n2)c1 [GW810578]", "EPHA4", 15),
    ("Cl.c1ccc(Oc2ccc(Nc3ccnc4cc(-c5ccc(CN6CCNCC6)o5)ccc34)cc2)nc1 [GW567142]", "EPHA4", 0),
    ("CCN1CCN(CCCC(=O)Nc2n[nH]c3nc(-c4ccc(O)cc4)c(Br)cc23)CC1 [SB-731579]", "EPHA4", 0),
    ("Cn1ccc2ncnc(Oc3ccc(NC(=O)Nc4cncc(C(F)(F)F)c4)c(Cl)c3)c21", "EPHA4", 57),
    ("O=C(NOCC1CC1)c1cc(Br)c(F)c(F)c1Nc1ccc(I)cc1Cl", "EPHA4", 0),
    ("COc1ccc(Nc2nccc(N3CCC(NC(=O)c4cccc(C#N)c4)C3)n2)cc1 (stereo not shown) [GSK1379730]", "EPHA4", 0),
    ("C[C@@H]1CNc2c(sc3ccc4nc(-c5ccc(O)cc5)ccc4c23)C(=O)N1", "EPHA4", 0),
    ("Cc1cccc2c(-c3ccncc3)c(-c3ccc(F)cc3)nn12.Cl [GW461487]", "EPHA4", 0),
    ("Cn1cc(-c2cccc3c(N)c(C(N)=O)nnc23)cn1", "EPHA4", 0),
    ("CSc1nccc(-c2c(-c3ccc(F)cc3)ncn2CCCN2CCOCC2)n1.Cl [SB-217146]", "EPHA4", 7),
    ("NC(=O)c1ccc(-c2cc3ncnc(SCC(=O)O)c3s2)cc1", "EPHA4", 17),
    ("COC(=O)Nc1nc2cc(Oc3ccc(NC(=O)Nc4cc(C(F)(F)F)ccc4Cl)cc3)ccc2[nH]1.Cl [GW697465]", "EPHA4", 92),
    ("CC(=O)Nc1ccc(-c2cc3ncnc(SCC(=O)O)c3s2)cc1", "EPHA4", 19),
    ("C[C@@H](Oc1cc(-n2cnc3cc(-c4cnn(C)c4)ccc32)sc1C(N)=O)c1ccccc1Cl [GSK580432]", "EPHA4", 7),
]

----------
Tested on: TSSK3
Conditions: concentration: 1 μM,replicates: in singlicate; n = 1
Each entry below lists one item and its recorded %Inh value.

# compound, measured-on, %Inh / %
rows = [
    ("Cc1ccc2c(-c3ccnc(Nc4ccc(C(F)(F)F)cc4)n3)cnn2n1", "TSSK3", 0),
    ("COc1cccc(OC)c1C(=O)Nc1cccc(-c2nn3ccccc3c2-c2ccnc(Nc3cccc(F)c3)n2)c1", "TSSK3", 0),
    ("CCOC(=O)N1CCC(n2cnc(-c3ccc(F)cc3)c2-c2ccnc(N)n2)CC1", "TSSK3", 12),
    ("CS(=O)c1ccc(-c2coc3ccc(-c4n[nH]c(=O)o4)cc23)cc1 (stereo not drawn)", "TSSK3", 0),
    ("O=C(Nc1ccccc1)c1cccc(Oc2ccc3nccn3n2)c1", "TSSK3", 0),
    ("O=C(Nc1cccc(C(F)(F)F)c1)c1cccc(Oc2ccc3nccn3n2)c1", "TSSK3", 16),
    ("COc1cc(Nc2nccc(N3CCC(NC(=O)c4cccc(C#N)c4)C3)n2)cc(OC)c1OC (stereo not drawn)", "TSSK3", 7),
    ("CCCC(=O)Nc1n[nH]c2ncccc12", "TSSK3", 0),
    ("C[C@@H]1CNc2c(sc3ccc4nc(-c5ccncc5)ccc4c23)C(=O)N1", "TSSK3", 2),
]

----------
Tested on: CAMK2G
Conditions: concentration: 1 μM,replicates: in singlicate; n = 1
Criterion: %Inh strictly less than 20%. Met: 1. Not met: -1.

# compound, measured-on, class-name
rows = [
    ("CC(C)c1nc(-c2cccc(NS(=O)(=O)c3ccccc3)c2)c(-c2ccnc(Nc3ccc4c(c3)CN(C)CC4)n2)s1 [GSK1649598]", "CAMK2G", -1),
    ("CCN1CCN(CCCC(=O)Nc2n[nH]c3nc(-c4ccc(O)cc4)c(Br)cc23)CC1 [SB-731579]", "CAMK2G", 1),
    ("COc1cc2ncn(-c3cc(OCC4CCCCC4)c(C(N)=O)s3)c2cc1OC [GSK204559]", "CAMK2G", -1),
    ("c1ccc(Oc2ccc(Nc3ccnc4ccc(-c5ccccn5)cc34)cc2)cc1 [GW407034]", "CAMK2G", 1),
    ("Cn1ccc2ncnc(Oc3ccc(NC(=O)Nc4cncc(C(F)(F)F)c4)c(Cl)c3)c21", "CAMK2G", 1),
    ("C[C@@H](Oc1cc(-n2cnc3cc(-c4ccncc4)ccc32)sc1C(N)=O)c1ccccc1Cl [GSK479719]", "CAMK2G", 1),
    ("CC(C)S(=O)(=O)N1CCN(Cc2ccc3c(c2)nc(NC(=O)c2ccsc2)n3C[C@H](O)c2ccccc2)CC1 [GW635815]", "CAMK2G", -1),
    ("COC(=O)c1cccc(NC(=O)NC2CCN(c3ccnc(NCc4ccc(F)cc4)n3)CC2)c1 [GSK1379860]", "CAMK2G", 1),
    ("NC(=O)Nc1sc(-c2ccc(F)cc2)cc1C(N)=O [GW789449]", "CAMK2G", 1),
    ("CCn1c(-c2nonc2N)nc2cncc(Br)c21 [SB-738004]", "CAMK2G", 1),
    ("O=c1[nH]cc(-c2ccc(O)cc2)c2sc(-c3ccncc3)cc12 [GSK1033723]", "CAMK2G", -1),
    ("O=C(Nc1ccc(Oc2ccc3nc(NC(=O)C4CC4)cn3n2)c(F)c1)c1cccn(-c2ccccc2)c1=O", "CAMK2G", 1),
    ("C[C@@H]1CNc2c(sc3ccc4nc(-c5ccc(O)cc5)ccc4c23)C(=O)N1", "CAMK2G", -1),
    ("C[C@@H](Oc1cc(-n2cnc3cc(-c4cnn(C)c4)ccc32)sc1C(N)=O)c1ccccc1Cl [GSK580432]", "CAMK2G", -1),
    ("CS(=O)(=O)c1cccc(CNc2nc(Nc3ccc4c(c3)[C@@H]3C[C@@H]4CNC3=O)ncc2C(F)(F)F)c1", "CAMK2G", 1),
    ("CCn1c(-c2nonc2N)nc2cncc(CNC3CCNCC3)c21.Cl [SB-747651]", "CAMK2G", 1),
    ("Cn1cc(-c2cccc3c(N)c(C(N)=O)nnc23)cn1", "CAMK2G", 1),
]
